meta.source: paper PMC4486954

Target: iASPP Ank-SH3 (Homo sapiens, UniProt Q8WUF5)
Construct: (2) iASPP Ank-SH3 603-828; HLT tag (His tag + lipoyl domain + TEV site) (N, cleaved yes); made in house; host or cells: E. coli HMS 174 (Novagen)
Sequence (Q8WUF5 603-828): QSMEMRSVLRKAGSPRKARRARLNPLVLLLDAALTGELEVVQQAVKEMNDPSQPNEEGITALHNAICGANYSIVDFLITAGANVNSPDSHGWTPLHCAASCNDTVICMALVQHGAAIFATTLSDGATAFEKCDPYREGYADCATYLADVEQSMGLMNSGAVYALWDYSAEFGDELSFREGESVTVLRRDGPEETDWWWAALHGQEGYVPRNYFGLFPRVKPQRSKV
Experiment: Fluorescence anisotropy binding of fluorescein-labeled iASPP Pro derived peptides to iASPP Ank-SH3
Settings: 250 μM iASPP Ank-SH3 titrated into 100 nM fluorescein-labeled peptide, 10 °C, 20 mM Hepes pH 7.3, ionic strength 50 mM
Procedure: Binding of the iASPP Pro-derived peptides to iASPP Ank-SH3 was measured by fluorescence anisotropy using a PerkinElmer Life Sciences LS-50b spectrofluorimeter equipped with a Hamilton microlab M dispenser. […] The excitation wavelength was set at 480 nm and the emission measured at 530 nm. […] The solution was then stirred for 30 sec, and the fluorescence and anisotropy were measured. Data were analyzed using the program Origin8 (OriginLab) and were fit to 1:1 binding model: […]
observation type: binding to iASPP Ank-SH3 (in words)

Reference set, count: 4
VARPLSPTRLQPALP [iASPP 484-498, iASPP Pro derived peptide, residues 484-498]; too weak to quantify
FFPERGPSPRPPATA [iASPP 196-210, iASPP Pro derived peptide, residues 196-210]; no binding
PTPFDFLGRAGSPRG [iASPP 172-186, iASPP Pro derived peptide, residues 172-186]; too weak to quantify
TLPRNYKVSPLASDR [iASPP 308-322, iASPP Pro derived peptide, residues 308-322]; no binding

Read the next record carefully.
q: Provide the documented binding to iASPP Ank-SH3 (in words) with iASPP Ank-SH3 (Homo sapiens, UniProt Q8WUF5) as the system for PLFTRAPPPKLQPQP [iASPP 396-410, iASPP Pro derived peptide, residues 396-410]
a: too weak to quantify

---

Target: iASPP Ank-SH3 (Homo sapiens)
Construct: (2) iASPP Ank-SH3 603-828; HLT tag (His tag + lipoyl domain + TEV site) (N, cleaved yes); made in house; host or cells: E. coli HMS 174 (Novagen)
Assay: Fluorescence anisotropy binding of fluorescein-labeled iASPP Pro derived peptides to iASPP Ank-SH3
Details: 250 μM iASPP Ank-SH3 titrated into 100 nM fluorescein-labeled peptide, 10 °C, 20 mM Hepes pH 7.3, ionic strength 50 mM
Procedure: Binding of the iASPP Pro-derived peptides to iASPP Ank-SH3 was measured by fluorescence anisotropy using a PerkinElmer Life Sciences LS-50b spectrofluorimeter equipped with a Hamilton microlab M dispenser. […] The excitation wavelength was set at 480 nm and the emission measured at 530 nm. […] The solution was then stirred for 30 sec, and the fluorescence and anisotropy were measured. Data were analyzed using the program Origin8 (OriginLab) and were fit to 1:1 binding model: […]
observation type: binding to iASPP Ank-SH3 (in words)

SDAGSYRRSLGSAGP [iASPP 324-338, iASPP Pro derived peptide, residues 324-338]; no binding
APSPRPGPGPLRQQG [iASPP 156-170, iASPP Pro derived peptide, residues 156-170]; no binding
PRYSSSSIPEPFGSR [iASPP 68-82, iASPP Pro derived peptide, residues 68-82]; no binding
